Tested on: MCF-7 cells
Assay: MTT antiproliferative assay, MCF-7
Assay type: cell-based
Settings: Homo sapiens, MCF7; MCF-7, 10 μM, 72 h; read-out: Growth inhibition (%) ± SEM
Each item that follows carries a reported inhibition at 10 µM.
Only the number, expressed in %, is required.

molecule="COC(=O)[C@]1(C)CCC[C@@]2(C)[C@@H]3CC[C@@]4(CN[C@@H](C)c5cccc6ccccc56)C[C@]3(CC[C@@H]21)C[C@H]4O [Compound 27]" measured_parameter="inhibition at 10 µM" unit_abbrev=% obs_value=79.6
molecule="COC(=O)[C@]1(C)CCC[C@@]2(C)[C@@H]3CC[C@@]4(CO)C[C@]3(CC[C@@H]21)C[C@H]4N[C@H](C)c1ccc2ccccc2c1 [Compound 17]" measured_parameter="inhibition at 10 µM" unit_abbrev=% obs_value=86.3
molecule="CC[C@H](N[C@@H]1C[C@]23CC[C@H]4[C@@](C)(CCC[C@@]4(C)C(=O)OC)[C@@H]2CC[C@@]1(CO)C3)c1ccccc1 [Compound 11]" measured_parameter="inhibition at 10 µM" unit_abbrev=% obs_value=49.5
molecule="COC(=O)[C@]1(C)CCC[C@@]2(C)[C@@H]3CC[C@@]4(CO)C[C@]3(CC[C@@H]21)C[C@H]4NCc1cccc2ccccc12 [Compound 15]" measured_parameter="inhibition at 10 µM" unit_abbrev=% obs_value=54
molecule="CC[C@H](NC[C@@]12CC[C@@H]3[C@@](CC[C@H]4[C@@]3(C)CCC[C@@]4(C)C(=O)OC)(C[C@H]1O)C2)c1ccccc1 [Compound 25]" measured_parameter="inhibition at 10 µM" unit_abbrev=% obs_value=40.1

What value of inhibition at 10 µM has been recorded for this entry: COC(=O)[C@]1(C)CCC[C@@]2(C)[C@@H]3CC[C@@]4(CO)C[C@]3(CC[C@@H]21)C[C@H]4N [Compound 6]
36.4

What value of inhibition at 10 µM has been recorded for this entry: COC(=O)[C@]1(C)CCC[C@@]2(C)[C@@H]3CC[C@@]4(CN[C@H](C)c5cccc6ccccc56)C[C@]3(CC[C@@H]21)C[C@H]4O [Compound 28]
90.6

What value of inhibition at 10 µM has been recorded for this entry: COC(=O)[C@]1(C)CCC[C@@]2(C)[C@@H]3CC[C@@]4(Cn5cc(Cc6ccccc6)nn5)C[C@]3(CC[C@@H]21)CC4=O [Compound 34]
37.5

What value of inhibition at 10 µM has been recorded for this entry: COC(=O)[C@]1(C)CCC[C@@]2(C)[C@@H]3CC[C@@]4(CO)C[C@]3(CC[C@@H]21)C[C@H]4N[C@H](C)c1cccc2ccccc12 [Compound 13]
56.7

What value of inhibition at 10 µM has been recorded for this entry: COC(=O)[C@]1(C)CCC[C@@]2(C)[C@@H]3CC[C@@]4(CNCc5cccc6ccccc56)C[C@]3(CC[C@@H]21)C[C@H]4O [Compound 26]
90.7

What value of inhibition at 10 µM has been recorded for this entry: COC(=O)[C@]1(C)CCC[C@@]2(C)[C@@H]3CC[C@@]4(Cn5cc(-c6ccccc6)nn5)C[C@]3(CC[C@@H]21)C[C@H]4O [Compound 35]
70

What value of inhibition at 10 µM has been recorded for this entry: COC(=O)[C@]1(C)CCC[C@@]2(C)[C@@H]3CC[C@@]4(CN[C@H](C)c5ccc6ccccc6c5)C[C@]3(CC[C@@H]21)C[C@H]4O [Compound 29]
32.5

What value of inhibition at 10 µM has been recorded for this entry: COC(=O)[C@]1(C)CCC[C@@]2(C)[C@@H]3CC[C@@]4(CNCc5ccc(OC)cc5)C[C@]3(CC[C@@H]21)C[C@H]4O [Compound 32]
99.6

What value of inhibition at 10 µM has been recorded for this entry: COC(=O)[C@]1(C)CCC[C@@]2(C)[C@@H]3CC[C@@]4(CNCc5ccc(F)cc5)C[C@]3(CC[C@@H]21)C[C@H]4O [Compound 23]
95.8

What value of inhibition at 10 µM has been recorded for this entry: COC(=O)[C@]1(C)CCC[C@@]2(C)[C@@H]3CC[C@@]4(CO)C[C@]3(CC[C@@H]21)C[C@H]4NCc1ccccc1 [Compound 8]
45.4

What value of inhibition at 10 µM has been recorded for this entry: COC(=O)[C@]1(C)CCC[C@@]2(C)[C@@H]3CC[C@@]4(Cn5cc(-c6ccccc6)nn5)C[C@]3(CC[C@@H]21)CC4=O [Compound 33]
57.1

What value of inhibition at 10 µM has been recorded for this entry: COC(=O)[C@]1(C)CCC[C@@]2(C)[C@@H]3CC[C@@]4(CO)C[C@]3(CC[C@@H]21)C[C@H]4NCc1ccc(F)cc1 [Compound 9]
79.8

What value of inhibition at 10 µM has been recorded for this entry: COC(=O)[C@]1(C)CCC[C@@]2(C)[C@@H]3CC[C@@]4(CO)C[C@]3(CC[C@@H]21)C[C@H]4N[C@@H](C)c1cccc2ccccc12 [Compound 14]
78.9

What value of inhibition at 10 µM has been recorded for this entry: CC[C@@H](NC[C@@]12CC[C@@H]3[C@@](CC[C@H]4[C@@]3(C)CCC[C@@]4(C)C(=O)OC)(C[C@H]1O)C2)c1ccccc1 [Compound 24]
34.8

What value of inhibition at 10 µM has been recorded for this entry: COC(=O)[C@]1(C)CCC[C@@]2(C)[C@@H]3CC[C@@]4(CO)C[C@]3(CC[C@@H]21)C[C@@H]4N [Compound 7]
43.1

What value of inhibition at 10 µM has been recorded for this entry: COC(=O)[C@]1(C)CCC[C@@]2(C)[C@@H]3CC[C@@]4(CO)C[C@]3(CC[C@@H]21)C[C@H]4N[C@@H](C)c1ccc2ccccc2c1 [Compound 16]
81

What value of inhibition at 10 µM has been recorded for this entry: COC(=O)[C@]1(C)CCC[C@@]2(C)[C@@H]3CC[C@@]4(CO)C[C@]3(CC[C@@H]21)C[C@H]4NCc1ccc(OC)cc1 [Compound 10]
86.5

What value of inhibition at 10 µM has been recorded for this entry: CC[C@@H](N[C@@H]1C[C@]23CC[C@H]4[C@@](C)(CCC[C@@]4(C)C(=O)OC)[C@@H]2CC[C@@]1(CO)C3)c1ccccc1 [Compound 12]
48.6
